Source: patent US20260258032A1

Let's look at some compounds and their measured IC50.
Target: JH2 domain of human Tyk2 (Homo sapiens)
Construct: 10×His-tagged TYK2 JH2 domain (amino acid 575-876)
Sequence (P29597 575-876): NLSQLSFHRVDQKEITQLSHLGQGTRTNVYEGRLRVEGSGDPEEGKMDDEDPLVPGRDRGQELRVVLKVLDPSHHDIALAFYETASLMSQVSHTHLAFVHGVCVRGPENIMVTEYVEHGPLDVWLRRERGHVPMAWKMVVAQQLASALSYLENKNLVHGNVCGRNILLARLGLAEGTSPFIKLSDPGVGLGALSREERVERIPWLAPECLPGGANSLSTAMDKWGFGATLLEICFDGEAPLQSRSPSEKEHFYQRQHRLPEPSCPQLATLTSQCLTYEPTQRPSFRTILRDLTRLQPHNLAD
Test: JH2 biochemical assay (TR-FRET probe displacement)
Assay type: binding
Conditions: JH2 biochemical assay
Where a name gives a salt, the structure may show the parent alone.
endpoint_label: IC50

>>> print(df.to_string())
                                    compound  endpoint_label     assay_value
 0  CCC1(C#N)CN(c2cc(C)cc(N3CC4(CC4)c4cnc(NC(C)=O)cc43)n2)C1 [Example 197]            IC50    10 to 100 nM
 1  CC(=O)Nc1cc2c(cn1)C1(CC1)CN2c1cc(C2=COCC2)nc(C(C)(F)F)n1 [Example 296, trifluoroacetate]            IC50         ≤ 10 nM
 2  CC(=O)Nc1cc2c(cn1)C1(CC1)CN2c1cc(NCC2CC2)nc(C(C)(F)F)n1 [Example 154, trifluoroacetate]            IC50         ≤ 10 nM
 3  CC(=O)Nc1cc2c(cn1)C1(CC1)CN2c1cc(C)cc(OC2CCOC2)n1 (centres unmarked) [Example 339, trifluoroacetate]            IC50    10 to 100 nM
 4  CCn1cc(-c2nc(C)cc(N3CC4(CC4)c4cnc(NC(C)=O)cc43)n2)cn1 [Example 247]            IC50         ≤ 10 nM
 5  CC(=O)Nc1cc2c(cn1)C1(CC1)CN2c1ccc(F)c(C(C)(F)F)n1 [Example 7]            IC50         ≤ 10 nM
 6  COc1ccc(-c2cc(N3CC4(CC4)c4cnc(NC(C)=O)cc43)nc(C(C)(F)F)n2)cn1 [Example 243, trifluoroacetate]            IC50         ≤ 10 nM
 7  CNc1cc(N2CC3(CC3)c3cnc(NC(C)=O)cc32)nc(C(C)(F)F)n1 [Example 10]            IC50         ≤ 10 nM
 8  COC(C)(C)COc1cc(C)cc(N2CC3(CC3)c3cnc(NC(C)=O)cc32)n1 [Example 336, trifluoroacetate]            IC50  100 to 1000 nM
 9  CC(=O)Nc1cc2c(cn1)C1(CC1)CN2c1cc(C)nc(C(C)(C)F)n1 [Example 312]            IC50         ≤ 10 nM
10  CCOC(=O)C(F)(F)c1nc(C)cc(N2CC3(CC3)c3cnc(NC(C)=O)cc32)n1 [Example 281]            IC50  100 to 1000 nM
11  CC(=O)Nc1cc2c(cn1)C1(CC1)CN2c1cc(OC2CC2)nc(C(C)(F)F)n1 [Example 6]            IC50         ≤ 10 nM
12  CC(=O)Nc1cc2c(cn1)C1(CC1)CN2c1cc(C)nc(N(C)C)n1 [Example 116]            IC50    10 to 100 nM
13  COCCN1CCN(c2nc(C)cc(N3CC4(CC4)c4cnc(NC(C)=O)cc43)n2)CC1 [Example 233, trifluoroacetate]            IC50       ≥ 1000 nM
14  CO[C@H]1C[C@@H](Nc2cc(N3CC4(CC4)c4cnc(NC(C)=O)cc43)nc(C(C)(F)F)n2)C1 [Example 172]            IC50         ≤ 10 nM
15  CC(=O)Nc1cc2c(cn1)C1(CC1C)CN2c1ccnc(C(C)(F)F)n1 (centres unmarked) [Example 37]            IC50    10 to 100 nM
16  COCC(C)Nc1cc(N2CC3(CC3)c3cnc(NC(C)=O)cc32)nc(C(C)(F)F)n1 (centres unmarked) [Example 178, trifluoroacetate]            IC50         ≤ 10 nM
17  CC(=O)Nc1cc2c(cn1)C1(CC1)CN2c1cc(C)cc(N2CCC(N(C)C)C2)n1 (centres unmarked) [Example 192, trifluoroacetate]            IC50  100 to 1000 nM
18  CC(=O)Nc1cc2c(cn1)C1(CC1)CN2c1cc(C)nc(N2CCC(O)C2)n1 (centres unmarked) [Example 214]            IC50  100 to 1000 nM
19  COCCCc1nc(C)cc(N2CC3(CC3)c3cnc(NC(C)=O)cc32)n1 [Example 71]            IC50    10 to 100 nM
